Assay: Inhibition of Bcl2 in human DMS53 cells assessed as growth inhibition
Assay metric: pIC50
Just the number, please; pIC50 means minus log10 of the concentration in mol/L.

Param item = CC(C)Oc1ccc(C(=O)Nc2c(C(=O)O)nn(-c3ccc(Oc4ccccc4)cc3)c2-c2ccc(OC(C)C)cc2)cc1 ; retrieve measured pIC50.
5.30
